Entries and their 8OG:A repair function score
B1: library; numbered along this chain (parent)
chain: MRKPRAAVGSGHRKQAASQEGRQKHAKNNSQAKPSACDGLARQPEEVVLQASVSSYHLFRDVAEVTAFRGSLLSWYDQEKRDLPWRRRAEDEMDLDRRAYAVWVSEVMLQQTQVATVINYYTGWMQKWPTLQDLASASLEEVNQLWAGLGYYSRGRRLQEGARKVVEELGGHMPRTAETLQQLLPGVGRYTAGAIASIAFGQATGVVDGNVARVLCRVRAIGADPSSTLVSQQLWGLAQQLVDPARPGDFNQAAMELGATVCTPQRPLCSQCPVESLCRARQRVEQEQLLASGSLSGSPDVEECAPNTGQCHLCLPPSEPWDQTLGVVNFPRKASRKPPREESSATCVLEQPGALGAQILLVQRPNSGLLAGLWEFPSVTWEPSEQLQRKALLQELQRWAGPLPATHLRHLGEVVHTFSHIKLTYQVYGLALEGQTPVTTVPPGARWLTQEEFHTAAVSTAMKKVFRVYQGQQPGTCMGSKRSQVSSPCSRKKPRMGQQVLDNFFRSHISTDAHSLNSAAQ

Variants of: B1
Experiment: 8OG:A repair function score (normalized; synonymous = 0, nonsense = -1) (normalized log-likelihood score); higher = more repair activity (WT-like);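 also: cells sorted at 72 h after reporter transfection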
Details: with 8OG:A DNA repair reporter (GFP) in HEK-293 MUTYH KO cells
Returns: the value as a bare number; no unit string appended.

The cases that follow already have their 8OG:A repair function score on record.
variant.designation	readout.label	meas.value
G297P	8OG:A repair function score	-0.0639
Q397F	8OG:A repair function score	0.0272
A280F	8OG:A repair function score	-0.597
E45R	8OG:A repair function score	0.0409
M478W	8OG:A repair function score	0.0205

State the recorded 8OG:A repair function score for this entry: `G444E`
-0.0932

Thanks! And `V53H` ?
0.00594

Thanks! And `W235L` ?
-0.406
